Origin of values: the supplement of paper PMC8253809

Test system: HGGX39 (paediatric high-grade glioma line)
Experiment: growth inhibition (% activity, log2 RLU normalised to DMSO / staurosporine); higher = more growth inhibition
Conditions: 33 µM
ASSAY_READOUT: growth inhibition (%)
Please state the figure in %; there is no need to write the unit.

// below: answered compounds
CCCCNc1cc(C(=O)O)cc(S(N)(=O)=O)c1Oc1ccccc1: -2.98
O=C(O[C@H]1CN2CCC1CC2)N1CCc2ccccc2[C@@H]1c1ccccc1: 1.75
Nc1ccc(S(N)(=O)=O)cc1: 2.44
C[C@H]1c2cccc(O)c2C(=O)C2=C(O)[C@]3(O)C(=O)C(C(N)=O)=C(O)[C@@H](N(C)C)[C@@H]3[C@@H](O)[C@@H]21: 6.11
CCC[C@H](NC(=O)[C@@H]1[C@H]2CCC[C@H]2CN1C(=O)[C@@H](NC(=O)[C@@H](NC(=O)c1cnccn1)C1CCCCC1)C(C)(C)C)C(=O)C(=O)NC1CC1: 1.74
C[C@@H]1O[C@@H]1P(=O)(O)O: 2.18

Would you kindly look at the next entry?
response.value for O=C(O)c1cn(-c2ccc(F)cc2)c2cc(N3CCNCC3)c(F)cc2c1=O (field: growth inhibition) = 4.02

====

Tested on: DIPGX9 (diffuse intrinsic pontine glioma line)
Experiment: growth inhibition (% activity, log2 RLU normalised to DMSO / staurosporine); higher = more growth inhibition
Conditions: 33 µM
ASSAY_READOUT: growth inhibition (%)
State just the number; it will be interpreted in %.

Short answer for CN(N=O)C(=O)N[C@H]1C(O)O[C@H](CO)[C@@H](O)[C@@H]1O (mixture of isomers) : growth inhibition was 1.8

// recorded growth inhibition for CCn1cc(C(=O)O)c(=O)c2cc(F)c(N3CCNCC3)cc21 : 0.854

Entry CC(=O)Nc1ncc([N+](=O)[O-])s1 — recorded growth inhibition = -0.952

Measured growth inhibition, O=P(O)(O)C(Cl)(Cl)P(=O)(O)O : 1.96

# growth inhibition of COC(=O)[C@@H]1CC2=CC(=O)CC[C@]2(C)[C@@]23O[C@@H]2C[C@@]2(C)[C@@H](CC[C@@]24CCC(=O)O4)[C@H]13 = 0.756

Measured growth inhibition of CC(C)NCC(O)COc1ccc(COCCOC(C)C)cc1 (centres undefined) : -0.782

CCOC(=O)C1=C[C@@H](OC(CC)CC)[C@H](NC(C)=O)[C@@H](N)C1 yielded growth inhibition of -0.724

Short answer for COCCOC(=O)C1=C(C)NC(C)=C(C(=O)OC/C=C/c2ccccc2)C1c1cccc([N+](=O)[O-])c1 (centres undefined) : growth inhibition was 5.34

# growth inhibition (compound: C=C1c2cccc(O)c2C(O)=C2C(=O)[C@]3(O)C(O)=C(C(N)=O)C(=O)[C@@H](N(C)C)[C@@H]3[C@@H](O)[C@H]12 ) is -1.06

Record COCCOC(=O)C1=C(C)NC(C)=C(C(=O)OC(C)C)C1c1cccc([N+](=O)[O-])c1 (centres undefined) . Reported growth inhibition: 0.313

Briefly, growth inhibition measured for CC1(C)S[C@@H]2[C@H](NC(=O)[C@H](NC(=O)N3CCN(S(C)(=O)=O)C3=O)c3ccccc3)C(=O)N2[C@H]1C(=O)O : -1.9

Documented growth inhibition of CC1CCc2cc(F)cc3c(=O)c(C(=O)O)cn1c23 (centres undefined) : -0.551

Lookup result for CCCS(=O)(=O)Nc1ccc(F)c(C(=O)c2c[nH]c3ncc(-c4ccc(Cl)cc4)cc23)c1F ; measured growth inhibition: 0.227

# growth inhibition of Cc1cnc(C(=O)O)c[n+]1[O-] = 5.6

The reported value for CN1CC2c3ccccc3Oc3ccc(Cl)cc3C2C1 (centres undefined) in terms of growth inhibition is 0.366

Entry CC(S)C(=O)NCC(=O)O (centres undefined) , growth inhibition reported as 1.07

The measured growth inhibition associated with C[C@@H](O[C@H]1OCCN(Cc2n[nH]c(=O)[nH]2)[C@H]1c1ccc(F)cc1)c1cc(C(F)(F)F)cc(C(F)(F)F)c1 reads 4.43

The measured growth inhibition associated with O=C1CCc2cc(OCCCCc3nnnn3C3CCCCC3)ccc2N1 reads 2.35

growth inhibition reported for this compound C=C1/C(=C\C=C2/CCC[C@]3(C)[C@@H]([C@H](C)CCCC(C)(C)O)CC[C@@H]23)C[C@@H](O)C[C@@H]1O : 1.22

====

Reported values of growth inhibition for individual entries
Test system: DIPGX37 (H3.3 K27M diffuse intrinsic pontine glioma line)
Test: growth inhibition (% activity, log2 RLU normalised to DMSO / staurosporine); higher = more growth inhibition
Conditions: 33 µM
Form entry: value (%) — number only.

Some solved entries appear below for comparison.
CCOC(=O)CCC(=O)O[C@H]1[C@H](O[C@@H]2[C@@H](C)[C@H](O[C@H]3C[C@@](C)(OC)[C@@H](O)[C@H](C)O3)[C@@H](C)C(=O)O[C@H](CC)[C@@](C)(O)[C@H](O)[C@@H](C)C(=O)[C@H](C)C[C@@]2(C)O)O[C@H](C)C[C@@H]1N(C)C: -0.105
CC(C)(C)C(=O)C(Oc1ccc(Cl)cc1)n1ccnc1 (centres undefined): 1.56
Oc1ccc(OCc2ccccc2)cc1: -1.94
OCCOCCN1CCN(C2=Nc3ccccc3Sc3ccccc32)CC1: 0.529

Entry O=C(C[S+]([O-])Cc1ccco1)NC/C=C\COc1cc(CN2CCCCC2)ccn1 (centres undefined) , DIPGX37 data, growth inhibition value: -2.72

# value of growth inhibition, DIPGX37, item CCCCc1oc2ccc(NS(C)(=O)=O)cc2c1C(=O)c1ccc(OCCCN(CCCC)CCCC)cc1 = 57.4

Entry C[C@](N)(Cc1ccc(O)c(O)c1)C(=O)O ; assay system DIPGX37; growth inhibition recorded at 1.72

Sample OC(Cn1cncn1)(Cn1cncn1)c1ccc(F)cc1F , system: DIPGX37. Its growth inhibition is -0.267

# COc1cc2c(cc1O)CC[C@@H]1[C@@H]2CC[C@]2(C)[C@@H](O)CC[C@@H]12 with DIPGX37: growth inhibition is 1.66

====

System: HGGX39
Assay: growth inhibition (% activity, log2 RLU normalised to DMSO / staurosporine); higher = more growth inhibition
Settings: 33 µM
ASSAY_READOUT: growth inhibition (%)
Quick note: give the figure in %, leave out the unit.

See these solved cases before continuing.
O=C1OC(CN2CCOCC2)CN1/N=C/c1ccc([N+](=O)[O-])o1 (configuration not stated): -0.169
CN(C)[C@@H](CCOc1cccc2ccccc12)c1ccccc1: 5.09
CCC[S+]([O-])c1ccc2[nH]c(NC(=O)OC)nc2c1 (configuration not stated): 0.691
COc1ccc(O)cc1: -0.798
CN(C)CCCN1c2ccccc2Sc2ccc(Cl)cc21: 0.279
Nc1ncn([C@H]2C[C@H](O)[C@@H](CO)O2)c(=O)n1: 4.99

growth inhibition for O=C(CCNNC(=O)c1ccncc1)NCc1ccccc1 is -1.32

The recorded growth inhibition for entry Nc1c2c(nc3ccccc13)CCCC2 equals -0.0323

Per the record, CC(C)c1nc(CN(C)C(=O)N[C@@H](CCN2CCOCC2)C(=O)N[C@H](CC[C@H](Cc2ccccc2)NC(=O)OCc2cncs2)Cc2ccccc2)cs1 has growth inhibition of 2.07

The measured growth inhibition associated with COc1c(C)c2c(c(O)c1C/C=C(\C)CCC(=O)OCCN1CCOCC1)C(=O)OC2 reads 17.2

Notebook: CC(CN(C)C)CN1c2ccccc2CCc2ccccc21 (configuration not stated) , growth inhibition read as 4.41

The reported value for c1cc(CN2CCCNCCNCCCNCC2)ccc1CN1CCCNCCNCCCNCC1 in terms of growth inhibition is 4.18

====

Test system: DIPGX29 (H3.3 K27M diffuse intrinsic pontine glioma line)
Test: growth inhibition (% activity, log2 RLU normalised to DMSO / staurosporine); higher = more growth inhibition
Conditions: 33 µM
Below, each of the molecules is paired with its reported growth inhibition value.
The response must be a number in % with no trailing unit.

Here's what some known entries look like.
NC(=O)OCC(COC(N)=O)c1ccccc1: 1.09
CC[C@H](C)[C@H](N)C1=N[C@H](C(=O)N[C@@H](CC(C)C)C(=O)N[C@H](CCC(=O)O)C(=O)N[C@H](C(=O)N[C@H]2CCCCNC(=O)[C@H](CC(N)=O)NC(=O)[C@@H](CC(=O)O)NC(=O)[C@H](Cc3cnc[nH]3)NC(=O)[C@@H](Cc3ccccc3)NC(=O)[C@H]([C@@H](C)CC)NC(=O)[C@@H](CCCN)NC2=O)[C@@H](C)CC)CS1: 0.716

growth inhibition reported for this molecule CCN1CCN(C(=O)N[C@@H](C(=O)N[C@@H]2C(=O)N3[C@@H]2SC(C)(C)[C@@H]3C(=O)O)c2ccccc2)C(=O)C1=O : -0.286

====

Let's look at some molecules and their measured growth inhibition.
Test system: SUDIPGVI (diffuse intrinsic pontine glioma line)
Experiment: growth inhibition (% activity, log2 RLU normalised to DMSO / staurosporine); higher = more growth inhibition
Conditions: 33 µM
Respond numerically; units are % and should not be typed.

Examples with answers:
C=C[C@]1(C)C[C@@H](OC(=O)CS[C@@H]2C[C@H]3CC[C@@H](C2)N3C)[C@]2(C)[C@H](C)CC[C@]3(CCC(=O)[C@H]32)[C@@H](C)[C@@H]1O: 5.01
O=C([O-])C(O)[C@H](O)[C@@H](O)[C@H](O)[C@H](O)CO.O=C([O-])C(O)[C@H](O)[C@@H](O)[C@H](O)[C@H](O)CO.[Ca+2] (stereo partly drawn): 2.72

Recorded growth inhibition (molecule CCCOc1ccc(C(=O)OCCN(CC)CC)cc1N ): -1.94

The molecule listed as CCCCCCCCCCCCCCCC[N+](C)(C)CCN(Cc1ccc(OC)cc1)c1ncccn1 shows growth inhibition equal to 56.7

The molecule listed as CCOC(=O)[C@H](CCc1ccccc1)N[C@H]1CCCN2CCC[C@@H](C(=O)O)N2C1=O has a reported growth inhibition of 4.92

Entry under test: CN1CC2c3ccccc3Oc3ccc(Cl)cc3C2C1 (stereo not drawn) . Its growth inhibition was -0.852

Form: molecule = CC(C)(O)c1ccccc1CC[C@@H](SCC1(CC(=O)O)CC1)c1cccc(/C=C/c2ccc3ccc(Cl)cc3n2)c1 ; growth inhibition = -0.324

Reported growth inhibition for C[C@H](CCC(=O)O)[C@H]1CC[C@H]2[C@@H]3CC[C@@H]4C[C@H](O)CC[C@]4(C)[C@H]3CC[C@]12C was -1.83

Item: Nc1nc2[nH]cnc2c(=S)[nH]1 | growth inhibition: -1.02

Documented growth inhibition of CNC(=O)c1ccc(N2C(=S)N(c3ccc(C#N)c(C(F)(F)F)c3)C(=O)C2(C)C)cc1F : -1.51

// recorded growth inhibition for CC1(C)S[C@@H]2[C@H](NC(=O)[C@H](NC(=O)N3CCNC3=O)c3ccccc3)C(=O)N2[C@H]1C(=O)O : -1.06

Item: O=C(CCCCCCC(=O)Nc1ccccc1)NO | growth inhibition: 38.5

The reported value for CC(=O)OCC(=O)[C@@]1(O)[C@H](C)C[C@H]2[C@@H]3CCC4=CC(=O)C=C[C@]4(C)[C@@]3(F)[C@@H](O)C[C@@]21C in terms of growth inhibition is 3.94

Given item CN(C)CCCC1(c2ccc(F)cc2)OCc2cc(C#N)ccc21 (stereo not drawn) , the value recorded as its growth inhibition is 1.71
